Data origin: ChEMBL document CHEMBL4689842

system: Fibroblast; assay: Multiplex assay against human fibroblast; type: toxicity, cell-based; details: 24 h, 10 µM, compound concentration 10 uM, replicate 2
// boundary case: Population Hoechst High Intensity Objects (%) equal to 10% maps to False; strictly smaller maps to True

CCN(CC)CCCCNc1ncc2cc(-c3cc(OC)cc(OC)c3)c(NC(=O)NC(C)(C)C)nc2n1 | False
Cc1nc(-c2cn3c(n2)-c2ccc(-c4cnn(C(C)(C)C(N)=O)c4)cc2OCC3)n(C(C)C)n1 | False
CN(C)C(=O)N[C@H]1CC[C@H](CCN2CCN(c3cccc(Cl)c3Cl)CC2)CC1.Cl [CARIPRAZINE HYDROCHLORIDE] | True
C=CC(=O)Nc1cccc(C(=O)Nc2ccc(Nc3cc(-c4[nH]c(SC)nc4C)ccn3)cc2)c1 | False
CC(C)(O)CNc1ncc(-c2ccnc(Nc3ccnc(Cl)c3)n2)c(CC2CC2)n1 | False
Cl.N#Cc1ccc2[nH]cc(CCCCN3CCN(c4ccc5oc(C(N)=O)cc5c4)CC3)c2c1 [VILAZODONE HYDROCHLORIDE] | False
COc1cc(-n2cnc3cc(-c4ccc(Cl)cc4)sc3c2=O)ccc1OCCN1CCCC1 | False
CN1CCC[C@@H]1CCO[C@](C)(c1ccccc1)c1ccc(Cl)cc1.O=C(O)/C=C/C(=O)O [CLEMASTINE FUMARATE] | False
CN1CCN(c2ccc(OC(F)(F)F)c(Nc3ncc4c(n3)-c3c(c(C(N)=O)nn3CCO)CC4)c2)CC1 | False
Cc1nc(-c2ccc(-c3ccc(C(=O)N4CCc5cc6c(cc54)C4(CCN(C)CC4)CO6)cc3)c(C)c2)no1 | False
O=C1NCN(c2ccccc2)C12CCN(CCCOc1ccc(F)cc1)CC2 [SPIRAMIDE] | True
COc1cc2nccc(Oc3ccc(NC(=O)Nc4cc(C)on4)c(Cl)c3)c2cc1OC.O | True
Cc1cc(C)cc(-c2cnc3cc(Cl)c(-c4cccc(O)c4)cc3c2OCCCN)c1 | True
Cc1csc2c(N[C@@H](C)CN3CCN(S(=O)(=O)c4ccc(Cl)c(Cl)c4)CC3)ncnc12 | True
C=CC(=O)Nc1ccc2ncnc(Nc3ccc(OCc4cccc(F)c4)c(Cl)c3)c2c1.Cc1ccc(S(=O)(=O)O)cc1 | True
Cn1cc(-c2[nH]c3cc(NC(=O)[C@H](N)C4CCCCC4)cc4c3c2C=NNC4=O)cn1 | False
OC1(c2ccc(Cl)cc2)CCN(Cc2c[nH]c3ccccc23)CC1 | True
CC[C@H](C)C(=O)O[C@H]1C[C@@H](C)C=C2C=C[C@H](C)[C@H](CC[C@@H]3C[C@@H](O)CC(=O)O3)[C@H]21 | True
c1cn2cc(-c3ccc4cn[nH]c4c3)nc(Nc3ccc(N4CCOCC4)cc3)c2n1 | False
Cc1c(-c2ccc(O)cc2)n(Cc2ccc(OCCN3CCCCCC3)cc2)c2ccc(O)cc12 | False
CN1CCN(CCOc2cc(OC3CCOCC3)c3c(Nc4c(Cl)ccc5c4OCO5)ncnc3c2)CC1 | True
CN(C)C(=O)/C(C#N)=C/c1ccc(-c2nc3cnc4[nH]ccc4c3n2C2CCCCC2)o1 | False
C=CC(=O)Nc1cc2c(Nc3ccc(F)c(Cl)c3)ncnc2cc1OCCCN1CCOCC1.Cl.Cl [CANERTINIB DIHYDROCHLORIDE] | False
Cc1nc(Nc2n[nH]c3c2CN(C(=O)N[C@H](CN(C)C)c2ccccc2)C3(C)C)c2sccc2n1 | False
CN1CCCC(n2nc(Cc3ccc(Cl)cc3)c3ccccc3c2=O)CC1.Cl (configuration not stated) [AZELASTINE HYDROCHLORIDE] | True
COc1ncc(-c2ccc3nccc(-c4ccnnc4)c3c2)cc1NS(=O)(=O)c1ccc(F)cc1F | False
COc1cccc([C@@H](C)NCCCc2ccccc2Cl)c1.Cl [TECALCET HYDROCHLORIDE] | True
C[C@@H](NCCCc1cccc(C(F)(F)F)c1)c1cccc2ccccc12.Cl [CINACALCET HYDROCHLORIDE] | False
CC(C)NCC(O)COc1ccc(CCOCC2CC2)cc1.Cl (configuration not stated) [BETAXOLOL HYDROCHLORIDE] | True
Cc1[nH]c(/C=C2\C(=O)Nc3ccc(S(=O)(=O)N(C)c4cccc(Cl)c4)cc32)c(C)c1C(=O)N1CCN(C)CC1 | True

----------
tested on: HEK-293T; assay: Multiplex assay against HEK293T; assay type: toxicity, cell-based; conditions: human, 12 h, 1 µM, compound concentration 1 uM, replicate 1
Quantity measured: Total Cell Count

Cc1nc(-c2cn3c(n2)-c2ccc(-c4cnn(C(C)(C)C(N)=O)c4)cc2OCC3)n(C(C)C)n1 | 548
COc1cccc([C@@H](C)NCCCc2ccccc2Cl)c1.Cl [TECALCET HYDROCHLORIDE] | 333
CN1CCCC(n2nc(Cc3ccc(Cl)cc3)c3ccccc3c2=O)CC1.Cl (configuration not stated) [AZELASTINE HYDROCHLORIDE] | 333
Cc1cc(C)cc(-c2cnc3cc(Cl)c(-c4cccc(O)c4)cc3c2OCCCN)c1 | 349
CN1CCN(c2ccc(OC(F)(F)F)c(Nc3ncc4c(n3)-c3c(c(C(N)=O)nn3CCO)CC4)c2)CC1 | 216
c1cn2cc(-c3ccc4cn[nH]c4c3)nc(Nc3ccc(N4CCOCC4)cc3)c2n1 | 207
C[C@@H](NCCCc1cccc(C(F)(F)F)c1)c1cccc2ccccc12.Cl [CINACALCET HYDROCHLORIDE] | 382
CN(C)CC#Cc1ccc(OCCCc2sc(N3CCc4cccc(C(=O)Nc5nc6ccccc6s5)c4C3)nc2C(=O)O)c(F)c1 | 278
CC(C)NCC(O)COc1ccc(CCOCC2CC2)cc1.Cl (configuration not stated) [BETAXOLOL HYDROCHLORIDE] | 343
CN(C)C(=O)/C(C#N)=C/c1ccc(-c2nc3cnc4[nH]ccc4c3n2C2CCCCC2)o1 | 283
C=CC(=O)Nc1ccc2ncnc(Nc3ccc(OCc4cccc(F)c4)c(Cl)c3)c2c1.Cc1ccc(S(=O)(=O)O)cc1 | 304

----------
Recorded measurements of Population Mitochondria Different-Phenotype (%), one per entry
system: HEK-293T; assay: Multiplex assay against HEK293T; assay type: toxicity, cell-based; conditions: human, 24 h, 1 µM, compound concentration 1 uM, replicate 1
Quantity measured: Population Mitochondria Different-Phenotype (%)

CC(C)(O)CNc1ncc(-c2ccnc(Nc3ccnc(Cl)c3)n2)c(CC2CC2)n1 | 82
CN(C)C(=O)N[C@H]1CC[C@H](CCN2CCN(c3cccc(Cl)c3Cl)CC2)CC1.Cl [CARIPRAZINE HYDROCHLORIDE] | 77
Cn1cc(-c2[nH]c3cc(NC(=O)[C@H](N)C4CCCCC4)cc4c3c2C=NNC4=O)cn1 | 62
CN1CCC[C@@H]1CCO[C@](C)(c1ccccc1)c1ccc(Cl)cc1.O=C(O)/C=C/C(=O)O [CLEMASTINE FUMARATE] | 95
Cc1c(-c2ccc(O)cc2)n(Cc2ccc(OCCN3CCCCCC3)cc2)c2ccc(O)cc12 | 84
O=C1NCN(c2ccccc2)C12CCN(CCCOc1ccc(F)cc1)CC2 [SPIRAMIDE] | 66
Cc1nc(Nc2n[nH]c3c2CN(C(=O)N[C@H](CN(C)C)c2ccccc2)C3(C)C)c2sccc2n1 | 4
C=CC(=O)Nc1cc2c(Nc3ccc(F)c(Cl)c3)ncnc2cc1OCCCN1CCOCC1.Cl.Cl [CANERTINIB DIHYDROCHLORIDE] | 69

----------
Recorded measurements of Growth Rate, one per entry
tested on: HEK-293T; test: Incucyte cell viability with HEK293T; assay type: toxicity, cell-based; details: human, 6 h, 10 µM, compound concentration 10 uM, replicate number 2, timepoint 6 hours; further: filed as whole numbers so only -1 and 0 and 1 occur
Quantity measured: Growth Rate

CN([C@@H]1CCc2c(CC(=O)O)c3cc(S(C)(=O)=O)ccc3n2C1)S(=O)(=O)c1ccc(F)cc1 [CRTH2-negative-control] | 1
CS(=O)(=O)c1cccc(NC(=O)N(Cc2ccc(C(=O)Nc3nn[nH]n3)cc2)c2ccc(C3CCCCC3)cc2)c1 | 0
O=C(c1ccc(F)cc1)N1CC(COc2ccc(Br)cc2)(C(=O)O)C1 | 0
Nc1nc(NCc2ccccc2)nc(-c2ccccc2CO)n1 | 1
COc1ccc2cc(OCC3(C(=O)O)CN(C(=O)c4ccc(F)cc4)C3)ccc2c1 | 0
CNCCC(Oc1ccc(C(F)(F)F)cc1)c1ccccc1.Cl (stereo not drawn) [FLUOXETINE HYDROCHLORIDE] | 1
CC(=O)Nc1c(C(C)=O)c(=O)n(C)c2nc(-c3ccc(Cl)cc3Cl)c(-c3ccc(Cl)cc3)cc12 | 1
C[C@H]1CC(=O)Nc2cc(C(=O)NCCC3CC3)ccc2N1C(=O)N1CC2CC2C1 (stereo partly drawn) | 1

----------
tested on: U2OS; assay: Multiplex assay against U2OS; format: toxicity, cell-based; conditions: human, 48 h, 1 µM, compound concentration 1 uM, replicate 2
Recorded measurements of Population Pyknosed Nuclei (%), one per entry
Quantity measured: Population Pyknosed Nuclei (%)

CN(C)CC#Cc1ccc(OCCCc2sc(N3CCc4cccc(C(=O)Nc5nc6ccccc6s5)c4C3)nc2C(=O)O)c(F)c1 | 20
OC1(c2ccc(Cl)cc2)CCN(Cc2c[nH]c3ccccc23)CC1 | 11
O=C1NCN(c2ccccc2)C12CCN(CCCOc1ccc(F)cc1)CC2 [SPIRAMIDE] | 6
CC[C@H](C)C(=O)O[C@H]1C[C@@H](C)C=C2C=C[C@H](C)[C@H](CC[C@@H]3C[C@@H](O)CC(=O)O3)[C@H]21 | 2
